parameter: melting point

{"molecule": "Cc1coc2cc(-c3ccc(O)c(O)c3)oc(=O)c12 [Compound 23]", "parameter": "melting point", "endpoint-result": "259 to 261 °C"}
{"molecule": "COc1cc(OC)cc(-c2cc3occ(C)c3c(=O)o2)c1 [Compound 25]", "parameter": "melting point", "endpoint-result": "153 to 155 °C"}

Please look at this molecule and report its melting point: COc1ccc(-c2cc3occ(C)c3c(=O)o2)cc1OC [Compound 22]
154 to 156 °C

Please look at this molecule and report its melting point: Cc1coc2cc(-c3ccc(F)cc3)oc(=O)c12 [Compound 15]
175 to 177 °C

Please look at this molecule and report its melting point: CCc1coc2cc(-c3cc(OC)cc(OC)c3)oc(=O)c12 [Compound 28]
131 to 133 °C

====

Reported melting point by item:

Worked set:
{"query-smiles": "COc1cccc(-c2cc3occ(C)c3c(=O)o2)c1", "endpoint-result": "119 to 121 °C"}
{"query-smiles": "Cc1coc2cc(-c3ccc(O)cc3)oc(=O)c12", "endpoint-result": "258 to 260 °C"}
{"query-smiles": "Cc1coc2cc(-c3cc(O)cc(O)c3)oc(=O)c12", "endpoint-result": "> 300 °C"}
{"query-smiles": "COc1cc(OC)cc(-c2cc3oc(C)c(C)c3c(=O)o2)c1", "endpoint-result": "163 to 165 °C"}
{"query-smiles": "Cc1cccc(-c2cc3occ(C)c3c(=O)o2)c1", "endpoint-result": "135 to 137 °C"}
{"query-smiles": "COc1cccc(-c2cc3occ(C)c3c(=O)o2)c1OC", "endpoint-result": "111 to 113 °C"}
{"query-smiles": "Cc1cc(C)cc(-c2cc3occ(C)c3c(=O)o2)c1", "endpoint-result": "171 to 173 °C"}
{"query-smiles": "COc1cc(-c2cc3occ(C)c3c(=O)o2)cc(OC)c1OC", "endpoint-result": "201 to 203 °C"}
{"query-smiles": "Cc1coc2cc(-c3cccc(F)c3)oc(=O)c12", "endpoint-result": "158 to 160 °C"}
{"query-smiles": "Cc1coc2cc(-c3cccc(O)c3O)oc(=O)c12", "endpoint-result": "239 to 241 °C"}

# input for lookup
Please look at this compound and report its melting point: COc1ccc(-c2cc3occ(C)c3c(=O)o2)cc1
146 to 148 °C

====

parameter: melting point

Please look at this molecule and report its melting point: Cc1ccc(-c2cc3occ(C)c3c(=O)o2)cc1C [Compound 21]
182 to 184 °C

Please look at this molecule and report its melting point: Cc1coc2cc(-c3ccccc3)oc(=O)c12 [Compound 9]
105 to 107 °C

Please look at this molecule and report its melting point: COc1cc(OC)cc(-c2cc3occ(C)c3c(=S)o2)c1 [Compound 30]
147 to 149 °C

Please look at this molecule and report its melting point: Cc1coc2cc(-c3cccc(O)c3)oc(=O)c12 [Compound 13]
225 to 227 °C

Please look at this molecule and report its melting point: Cc1ccc(-c2cc3occ(C)c3c(=O)o2)cc1 [Compound 16]
153 to 155 °C

Please look at this molecule and report its melting point: CCOc1cccc(-c2cc3occ(C)c3c(=O)o2)c1 [Compound 12]
128 to 130 °C
